- assay target: extracellular domain of the FGFR2b protein (NP_075259.4) (UniProt P21802)
- Sequence (P21802 other isoform, or with tags, fused parts or gaps): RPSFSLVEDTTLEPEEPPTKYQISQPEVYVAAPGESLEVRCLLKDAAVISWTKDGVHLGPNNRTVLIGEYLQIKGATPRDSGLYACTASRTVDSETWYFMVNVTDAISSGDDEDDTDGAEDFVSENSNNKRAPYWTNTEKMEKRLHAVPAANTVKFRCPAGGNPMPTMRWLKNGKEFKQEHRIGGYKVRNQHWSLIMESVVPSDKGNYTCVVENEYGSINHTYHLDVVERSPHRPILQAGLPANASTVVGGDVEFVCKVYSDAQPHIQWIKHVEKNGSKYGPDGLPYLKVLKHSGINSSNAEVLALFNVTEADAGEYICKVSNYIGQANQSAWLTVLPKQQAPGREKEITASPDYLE
- test details: phage ELISA
Property: OD (450 nm) value; scope: individual binders
// response body must contain only the number

- binder: "2B2 scFv displayed on phage (scFv) scFv: QLQLQQSGAELVKPGASVKMSCKASGYTFASYNLHWVKQTPGQGLEWIGLIYPENGDTSYNQKFKDKATLTADKSSTTAYIQLSSLASEDSAVYFCARGGFDYWGQGTTLTVSSGGGGSGGGGSGGGGSDIVMTQSQKFMSTSVGDRVSVTCKASQNVGTNVAWYQQKPGQSPKALIYSASYRYSGVPDRFTGSGSGTDYTLTISSVQAEDLALYYCQQHYSTPYTFGGGTKLELK"
  observed: 2.38
- binder: "1G6 scFv displayed on phage (scFv) scFv: EIQLQQSGAELVKPGASVKMSCKASGYTFRYYNMHWVKRTPGQGLEWIGLIYPDNGDTSYNQKFKGKATLTADTSSSTAYMQLSSLTSEDSAVYYCARGGLDYWGQGTSLTVSSGGGGSGGGGSGGGGSNIVMTQSHKFMSTSVGDRVSITCKASQDVNTDVAWYQQKPGQSPKLLIYSASYRYTGVPTRFTGSGSGTDFTFTISGVQAEDLADYYCQQHYNTPYTFGGGTKLELK"
  observed: 2.44
- binder: "1D7 scFv displayed on phage (scFv) scFv: QIQLQQSGAELVKPGASVKMSCKASGYTFRYYNMHWVKRTPGQGLEWIGLIYPDNGDTSYNQKFKGKATLTADTSSSTAYMQLSSLTSEDSAVYYCARGGLDYWGQGTSLTVSSGGGGSGGGGSGGGGSDIQMTQSPSSMSASLGDRITITCQATQDIVKNLNWYQQKPGKPPSFLIYYATELAEGVPSRFSGSGSGSDYSLTISNLESEDFADYYCLQFYEFPLTFGAGTKLELK"
  observed: 2.14
- binder: "3B4 scFv displayed on phage (scFv) scFv: EVQLQQSGADLVKPGASVKMSCKASGYTFSYYNMHWVRRTPGQGLEWIGLIYPDNGDTSYNQKFKGKATLTADTSSSTAYMQLSSLTSEDSAVYYCARGGLDYWGQGTTLTVSSGGGGSGGGGSGGGGSDIQMIQSPASMSASVGETVTITCGASENIYGALNWYQRKQGKSPQLLIYGATNLADGMSSRFSGSGSGRQYSLKISSLHPDDVATYYCQNVLSTPYTFGGGTKLEMK"
  observed: 2.47

Then this binder:
Consider the binder 2B1 scFv displayed on phage (scFv) scFv: EVQLQQSGAELVKPGASVKMSCKASGYTFASYNLHWVKQTPGQGLEWIGLIYPENGDTSYNQKFKGKATLTADKSSSTAYIQLSSLTSEDSAVYFCARGGFDYWGQGTSLTVSSGGGGSGGGGSGGGGSDIQMIQSPASLSVSVGETVTITCRASENIYSNLAWYQQKQGKSPQLLVYNAKTLADGVPSRFSGSGSGTQYSLKINSLQPEDFGSYYCQHFWSTPYTFGGGTKLEIK and give its measured OD (450 nm) value.
2.33
